Kindly supply the reported half-life values for the records listed here.
Assay: Stability in mouse plasma assessed as half life by UPLC-MS/MS analysis
Assay type: ADME, cell-free
# output: bare number, implied unit h

Give recorded half-life. Cc1sc2c(c1C)C(c1ccc(Cl)cc1)=N[C@@H](CC(=O)N1CCC(CN3CCN(c4ccc(N5CCC(=O)NC5=O)cc4)CC3)CC1)c1nnc(C)n1-2
16.5

Give recorded half-life. Cc1sc2c(c1C)C(c1ccc(Cl)cc1)=N[C@@H](CC(=O)N1CCC(CN3CCN(c4ccc(NC5CCC(=O)NC5=O)cc4)CC3)CC1)c1nnc(C)n1-2 (stereo partly drawn)
12.9

Give recorded half-life. Cc1sc2c(c1C)C(c1ccc(Cl)cc1)=N[C@@H](CC(=O)N1CCC(CN3CCN(c4ccc5c(c4)n(C)c(=O)n5C4CCC(=O)NC4=O)CC3)CC1)c1nnc(C)n1-2 (stereo partly drawn)
68.4
